System: MDA-MB-231 breast
Assay name: NCI tumour cell line growth inhibition, 48 h
molecules and their reported GI50

O=C(O)CSc1cc(NS(=O)(=O)c2ccc(Br)cc2)c2ccccc2c1O    2720 nM

Incoming: State the recorded GI50 for this entry: `Cn1cc(-c2ccc3c(c2)ncn3-c2cc(NS(=O)(=O)C3CC3)cc(-c3ccc(F)cc3F)c2)cn1`
Outgoing: 5610 nM

Incoming: Value lookup for GI50; key = CC(C)(C)OC(=O)CC(NC(=O)OCc1ccccc1)NC(=O)OC(C)(C)C (stereo not given)
Outgoing: 52.8 µg/mL

Incoming: Which GI50 is listed for `O=C1[C@H](Cc2ccc(O)cc2)N2C(=O)CCN(C(=O)NCc3ccccc3)[C@H]2CN1Cc1cccc2ccccc12` ?
Outgoing: 605 nM

Incoming: Endpoint output: GI50 of `CCOC(=O)C#Cc1c(C(=O)OCC)nnn1[C@@H]1O[C@H](COC)[C@@H](OC)[C@H]1OC` . Value?
Outgoing: 10700 nM

Incoming: I would be grateful if you could share the reported GI50 for `CN(c1ccccc1)c1c2ccccc2nc2[nH]c3ccccc3c12` .
Outgoing: 1930 nM
